Target: human tyrosinase (hTyr) (Homo sapiens, UniProt P14679)
Sequence (P14679 19-476 limits assumed): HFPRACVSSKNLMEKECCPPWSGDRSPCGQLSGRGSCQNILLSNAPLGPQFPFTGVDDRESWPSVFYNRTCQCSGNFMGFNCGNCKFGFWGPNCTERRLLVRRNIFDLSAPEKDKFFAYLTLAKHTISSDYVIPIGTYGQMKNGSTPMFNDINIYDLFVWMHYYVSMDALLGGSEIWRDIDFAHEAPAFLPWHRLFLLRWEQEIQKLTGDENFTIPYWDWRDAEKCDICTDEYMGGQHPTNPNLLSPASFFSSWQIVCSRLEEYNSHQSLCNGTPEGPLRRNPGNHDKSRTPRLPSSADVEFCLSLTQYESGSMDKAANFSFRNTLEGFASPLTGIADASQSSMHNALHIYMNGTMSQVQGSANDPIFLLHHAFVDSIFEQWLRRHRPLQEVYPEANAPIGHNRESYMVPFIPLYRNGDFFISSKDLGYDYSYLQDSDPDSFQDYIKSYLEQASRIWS
Test: L-Dopa oxidase activity of hTyr, dose-response profiles (MBTH assay)
Settings: dopa oxidase activity of hTyr, 1 mM L-Dopa, phosphate buffer pH 7.0, 37 °C; values above 3 mM given as >3000
Measured EC50 of individual entries
Give the value, in units of µM, as a plain number.

Dear colleague, I am looking for the recorded EC50 of the following molecule: CCCCCCc1ccc(O)cc1O [W072, 4-hexylresorcinol, reference compound]
93

Dear colleague, I am looking for the recorded EC50 of the following molecule: CC(C)(C)Nc1nc(-c2ccc(O)cc2O)cs1 [W534]
25

Dear colleague, I am looking for the recorded EC50 of the following molecule: OCCc1ccc(O)cc1O [W785]
560

Dear colleague, I am looking for the recorded EC50 of the following molecule: CCCC(=O)Nc1nc(-c2ccc(O)cc2O)cs1 [W577]
3.5

Dear colleague, I am looking for the recorded EC50 of the following molecule: O=C(O)c1ccc(Nc2nc(-c3ccc(O)cc3O)cs2)cc1 [W529]
2.6

Dear colleague, I am looking for the recorded EC50 of the following molecule: CC(=O)Nc1nc(-c2ccc(O)cc2O)cs1 [W547]
3.2

Dear colleague, I am looking for the recorded EC50 of the following molecule: CCCCCCNc1nc(-c2ccc(O)cc2O)cs1 [W688]
60

Dear colleague, I am looking for the recorded EC50 of the following molecule: OCCCCCCNc1nc(-c2ccc(O)cc2O)cs1 [W692]
6.9

meta.source: paper PMC5877551
